Test system: PA-1
protocol.text: Confirmatory qHTS for gynecologic anti-cancer compounds from libraries of approved drugs and bioactive compounds; note: nearly all actives have a fitted effect of over 55% in size
experimental.setup: gynecologic cancer cell panel viability, ATPlite luminescence, 48 h; series mostly up to 57.6 µM
Results filed as inconclusive are left out. Activity calls are given as the source filed them. Calls come from the whole dose curve; as a rule, active = well fitted cell-killing curve with a large enough effect; inconclusive = small, poorly fitted or top-dose-only effect, or effect the other way; inactive = no such curve, though single readings can be large or run the other way.
Outcome field: choose from Y = active, N = inactive

Some entries whose results are on file:
compound=O=C(Nc1cn[nH]c1-c1nc2ccc(CN3CCOCC3)cc2[nH]1)NC1CC1 category=Y
compound=NS(=O)(=O)OC[C@@H]1C[C@@H](n2ccc3c(N[C@H]4CCc5ccccc54)ncnc32)C[C@@H]1O category=Y
compound=COCCOc1nc(-c2ccc(Cl)c(Cl)c2)n(-c2ccc(NC(=O)CCl)cc2)n1 category=Y
compound=O=C(CCCCCCNC(=O)c1cnc(N(c2ccccc2)c2ccccc2)nc1)NO category=Y
compound=S=c1nc[nH]c2nc[nH]c12 category=Y
compound="CC(=O)c1cnc2ccc(-c3cc(Cl)c(O)c(Cl)c3)nc2c1NC1CCC(CN(C)C)CC1 (centres undefined)" category=Y

Exercise: # outcome recorded in this test, key = Cc1cc(C(=O)N2CCN(c3cccc(Cl)c3)CC2)n(-c2ccccc2)n1
Solution: Y

Exercise: # outcome recorded in this test, key = Nc1ccn([C@@H]2O[C@H](CO)[C@@H](O)C2(F)F)c(=O)n1
Solution: Y

Exercise: # outcome recorded in this test, key = CN[C@@H](C)C(=O)N[C@H]1CN(C(=O)CC(C)C)CC[C@H]2CC[C@@H](C(=O)NC(c3ccccc3)c3ccccc3)N2C1=O
Solution: N

----------
Tested on: PA-1
protocol.text: Confirmatory qHTS for gynecologic anti-cancer compounds from libraries of approved drugs and bioactive compounds; note: nearly all actives have a fitted effect of over 55% in size; note: potency is the fitted concentration of half-maximal effect
experimental.setup: gynecologic cancer cell panel viability, ATPlite luminescence, 48 h; series mostly up to 57.6 µM
Inconclusive results are not listed. Active and inactive are the calls of the source. Calls come from the whole dose curve; as a rule, active = well fitted cell-killing curve with a large enough effect; inconclusive = small, poorly fitted or top-dose-only effect, or effect the other way; inactive = no such curve, though single readings can be large or run the other way.
Below: a set of entries, each annotated with reported Potency.

compound=c1cc(N[C@@H]2CCNC2)nc(-c2cnc3ccc(-c4cn[nH]c4)cn23)c1 outcome_measure=Potency result="1.72 µM (active)"
compound="COC(C(=O)N1Cc2[nH]nc(NC(=O)c3ccc(N4CCN(C)CC4)cc3)c2C1)c1ccccc1 (centres undefined)" outcome_measure=Potency result="7.69 µM (active)"
compound=COc1cc2c(Nc3ccc(NC(=O)c4ccccc4)cc3)ncnc2cc1OCCCN1CCOCC1 outcome_measure=Potency result="34.3 µM (active)"
compound="Cc1nc(Nc2n[nH]c3c2CN(C(=O)NC(CN(C)C)c2ccccc2)C3(C)C)c2sccc2n1 (centres undefined)" outcome_measure=Potency result="0.0243 µM (active)"
compound=CC(C)c1nn(-c2c(Cl)cccc2Cl)c2nc(Cc3ccc(OCCO)cc3)[nH]c(=O)c12 outcome_measure=Potency result="0.0968 µM (active)"

Exercise: Query Potency on PA-1 for Cn1cnc([N+](=O)[O-])c1Sc1ncnc2nc[nH]c12
Solution: 5.44 µM (active)

Exercise: Query Potency on PA-1 for Cc1ccc(C(=O)Nc2ccc(Oc3cc4cnn(C)c4cc3-c3cn[nH]c3)c(F)c2)c(=O)n1-c1ccc(F)cc1
Solution: 10.9 µM (active)

Exercise: Query Potency on PA-1 for COc1cc2c(NC3CCN(C(C)C)CC3)nc(C3CCCCC3)nc2cc1OCCCN1CCCC1
Solution: 17.2 µM (active)

Exercise: Query Potency on PA-1 for CC(=O)NCC(=O)N1C2CCC1c1cc(Nc3ncc(C(F)(F)F)c(NC4CCC4)n3)ccc12 (centres undefined)
Solution: 0.685 µM (active)
